Numbers sourced from patent US20250144067A1.

Tested on: NCI-H292 lung cancer cells
Assay: FDA drug screening, complete media vs cholesterol-free media without statin (TABLE 1)
Assay type: cell-based, human
Assay Conditions: NCI-H292 cells in cholesterol-free media without statin
Where a name gives a salt, the structure may show the parent alone.

{"Compound": "Cc1cn(-c2cc(NC(=O)c3ccc(C)c(Nc4nccc(-c5cccnc5)n4)c3)cc(C(F)(F)F)c2)cn1", "Cholesterol-free": 1.23}
{"Compound": "O=C1C2CC3CC1CC(O)(C3)C2 [Idramantone]", "Cholesterol-free": 1.638}
{"Compound": "CCN(CC)CCOC(=O)C(O)(c1ccccc1)c1ccccc1 [Benactyzine hydrochloride]", "Cholesterol-free": 1.39}
{"Compound": "CN/C(=N/CCSCc1nc[nH]c1C)NC#N [Cimetidine]", "Cholesterol-free": 1.504}
{"Compound": "CC[C@H]1OC(=O)[C@H](C)[C@@H](O[C@H]2C[C@@](C)(OC)[C@@H](O)[C@H](C)O2)[C@H](C)[C@@H](O[C@@H]2O[C@H](C)C[C@H](N(C)C)[C@H]2O)[C@](C)(O)C[C@@H](C)C(=O)[C@H](C)[C@@H](O)[C@]1(C)O [Erythromycin]", "Cholesterol-free": 1.913}
{"Compound": "C=CC(N)CCC(=O)O (stereo not shown) [Vigabatrin (hydrochloride)]", "Cholesterol-free": 1.769}
{"Compound": "CO/N=C(\\C(=O)N[C@@H]1C(=O)N2C(C(=O)O)=C(COC(C)=O)CS[C@H]12)c1csc(N)n1 [Cefotaxime]", "Cholesterol-free": 1.225}
{"Compound": "CCN1CC(CCN2CCOCC2)C(c2ccccc2)(c2ccccc2)C1=O (stereo not shown) [Doxapram (hydrochloride hydrate)]", "Cholesterol-free": 2.003}
{"Compound": "CC(C)NCC(O)c1ccc(O)c(O)c1 (stereo not shown) [Isoprenaline (hydrochloride)]", "Cholesterol-free": 1.676}
{"Compound": "C[C@H]1O[C@@H](n2cc(F)c(=O)[nH]c2=O)[C@H](O)[C@@H]1O [Doxifluridine]", "Cholesterol-free": 1.329}
{"Compound": "CO[C@@]1(NC(=O)C(C(=O)O)c2ccc(O)cc2)C(=O)N2C(C(=O)O)=C(CSc3nnnn3C)CO[C@@H]21 (stereo partly shown) [Moxalactam (sodium salt)]", "Cholesterol-free": 1.849}
{"Compound": "Clc1ccccc1CN1CCc2sccc2C1 [Ticlopidine (hydrochloride)]", "Cholesterol-free": 1.64}
{"Compound": "FC(F)(F)c1ccc(CNc2ccc(Cc3c[nH]c4ncc(Cl)cc34)cn2)cn1 [Pexidartinib]", "Cholesterol-free": 1.609}
{"Compound": "CC(C)(Sc1cc(C(C)(C)C)c(O)c(C(C)(C)C)c1)Sc1cc(C(C)(C)C)c(O)c(C(C)(C)C)c1 [Probucol]", "Cholesterol-free": 1.75}
{"Compound": "CC1(C)S[C@@H]2[C@H](NC(=O)Cc3ccccc3)C(=O)N2[C@H]1C(=O)O.CC1(C)S[C@@H]2[C@H](NC(=O)Cc3ccccc3)C(=O)N2[C@H]1C(=O)O.O.O.O.O.c1ccc(CNCCNCc2ccccc2)cc1 [Penicillin G benzathine (tetrahydrate)]", "Cholesterol-free": 1.6}
{"Compound": "CCCN[C@H]1CCc2nc(N)sc2C1 [Pramipexole]", "Cholesterol-free": 1.519}
{"Compound": "CN(C)[C@@H]1C(O)=C(C(N)=O)C(=O)[C@@]2(O)C(O)=C3C(=O)c4c(O)ccc(Cl)c4[C@@H](O)[C@H]3C[C@@H]12 [Demeclocycline (hydrochloride)]", "Cholesterol-free": 1.527}
{"Compound": "CN1C(C(=O)Nc2ccccn2)=C(O)c2ccccc2S1(=O)=O [Piroxicam]", "Cholesterol-free": 1.552}
{"Compound": "CC(C)NC[C@H](O)COc1cccc2ccccc12.Cl [(S)-(−)-Propranolol (hydrochloride)]", "Cholesterol-free": 1.5}
{"Compound": "CC[C@@H]1CN(C(=O)NCC(F)(F)F)C[C@@H]1c1cnc2cnc3[nH]ccc3n12 [Upadacitinib]", "Cholesterol-free": 1.213}
{"Compound": "CC(C)(Oc1ccc(CCNC(=O)c2ccc(Cl)cc2)cc1)C(=O)O [Bezafibrate]", "Cholesterol-free": 1.652}
{"Compound": "Nc1cc(F)ccc1NC(=O)c1ccc(CNC(=O)/C=C/c2cccnc2)cc1 [Tucidinostat]", "Cholesterol-free": 1.245}
{"Compound": "N#Cc1ccc([C@H]2CCc3cncn32)c(F)c1 [Osilodrostat]", "Cholesterol-free": 1.647}
{"Compound": "C[Se]CC[C@H](N)C(=O)O [Selenomethionine]", "Cholesterol-free": 1.898}
{"Compound": "COc1nc(N)nc2c1ncn2[C@@H]1O[C@H](CO)[C@@H](O)[C@@H]1O [Nelarabine]", "Cholesterol-free": 1.291}
{"Compound": "Cc1nnc(SCC2=C(C(=O)O)N3C(=O)[C@@H](NC(=O)Cn4cnnn4)[C@H]3SC2)s1 [Cefazolin]", "Cholesterol-free": 1.603}
{"Compound": "O=C(O)CCC(=O)c1ccc(-c2ccccc2)cc1 [Fenbufen]", "Cholesterol-free": 1.772}
{"Compound": "COc1cccc2c1cc([N+](=O)[O-])c1c(C(=O)O)cc3c(c12)OCO3 [Aristolochic acid A]", "Cholesterol-free": 1.282}
{"Compound": "CCOC(=O)c1cncn1[C@H](C)c1ccccc1 [Etomidate (hydrochloride)]", "Cholesterol-free": 1.469}
{"Compound": "CO/N=C(\\C(=O)N[C@@H]1C(=O)N2C(C(=O)[O-])=C(C[N+]3(C)CCCC3)CS[C@H]12)c1csc(N)n1 [Cefepime (Dihydrochloride Monohydrate)]", "Cholesterol-free": 1.209}
{"Compound": "Cc1ncc([N+](=O)[O-])n1CC(O)CCl (stereo not shown) [Ornidazole (Levo-)]", "Cholesterol-free": 1.634}
